# test-target: T1, 4H462-bA
# T1 chain: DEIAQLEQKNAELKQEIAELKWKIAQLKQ
# measurement-protocol: two-hybrid library CCNG1;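 note: natural log of median RNA to DNA barcode read ratio; higher means stronger binding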
observable: interaction score
// keep it numeric: no unit symbol after the value

{"columns": ["binder", "value"],
 "data": [
  ["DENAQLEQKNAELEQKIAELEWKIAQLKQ [4H1446-bA]", -0.194],
  ["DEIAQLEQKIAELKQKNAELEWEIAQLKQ [4H370-bA]", 1.39],
  ["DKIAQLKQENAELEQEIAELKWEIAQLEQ [4H2697-bA]", 2.04],
  ["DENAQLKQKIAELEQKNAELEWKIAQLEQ [4H1845-bA]", -0.986]
]}

Given the binder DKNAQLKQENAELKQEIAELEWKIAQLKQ [4H3782-bA] , what is its reported interaction score?
0.962

Which interaction score value belongs to DKNAQLKQKIAELEQEIAELEWENAQLEQ [4H3843-bA] ?
-0.841

Looking for the measured interaction score of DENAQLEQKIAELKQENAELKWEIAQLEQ [4H1369-bA] , can you help?
-0.339

Which interaction score is listed for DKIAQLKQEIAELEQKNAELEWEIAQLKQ [4H2610-bA] ?
1.76

What value of interaction score has been reported for the following binder? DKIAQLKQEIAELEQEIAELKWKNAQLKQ [4H2576-bA]
0.799
